Catalogue of molecules with associated rate of killed adults
test system: organophosphorous agent resistant two-spotted spider mites; test: Effect on Two-spotted Spider Mite (spray on kidney bean leaves); type: in vivo; conditions: 125 ppm, water dispersible powder of Formulation Example 1 sprayed, 17 female adults, 25° C., 65% humidity, 3 days

| MOLECULE | rate of killed adults, % |
| --- | --- |
| Cc1cc(F)ccc1OC1CCN(c2ccc(C(F)(F)F)cn2)CC1 [1-48] | 100 |
| Cc1cc(C)c(OC2CCN(c3ccc(C(F)(F)F)cn3)CC2)c(C)c1 [1-47] | 100 |
| FC(F)(F)c1ccc(N2CCC(Oc3ccc(C(F)(F)F)cc3C3OCCO3)CC2)nc1 [1-181] | 100 |
| FC(F)(F)c1ccc(OC2CCN(c3ccc(C(F)(F)F)cn3)CC2)cc1 [1-75] | 100 |
| FC(F)(F)c1ccc(N2C3CCC2CC(Oc2ccc(C(F)(F)F)cc2OCC=CCl)C3)nc1 (mixture of isomers) [2-148] | 100 |
| CN(C)C(=O)Sc1cc(C(F)(F)F)ccc1OC1CC2CCC(C1)N2c1ccc(C(F)(F)F)cn1 (stereo not drawn) [2-157] | 100 |
| CCON=Cc1cc(C(F)(F)F)ccc1OC1CC2CCC(C1)N2c1ccc(C(F)(F)F)cn1 (stereo not drawn) [2-203] | 100 |
| FC(F)(F)c1ccc(N2CC3CCC(C2)C3Oc2ccc(C(F)(F)F)cc2COC2CCOC2)nc1 (stereo not drawn) [5-231] | 100 |
| FC(F)(F)c1ccc(N2C[C@H]3CCC[C@@H](C2)[C@@H]3Oc2ccc(C(F)(F)F)cc2OCC2CC2)nc1 [7-103] | 100 |
| CC(F)COc1cc(C(F)(F)F)ccc1OC1CC2CCC(C1)N2c1ccc(C(F)(F)F)cn1 (stereo not drawn) [2-181] | 100 |
| C=CCc1cc(C(F)(F)F)ccc1OC1CCN(c2ccc(C(F)(F)F)cn2)CC1 [1-74] | 100 |
| CCCOc1cc(C(F)(F)F)ccc1OC1CCN(c2ccc(C)cn2)CC1 [1-94] | 100 |
| CCCC(O)c1cc(C(F)(F)F)ccc1OC1CC2CCC(C1)N2c1ccc(C(F)(F)F)cn1 (stereo not drawn) [2-184] | 100 |
| CCCOc1cc(C(F)(F)F)ccc1OC1CCN(c2ccc(C(F)(F)F)cn2)CC1CC (stereo not drawn) [1-187] | 100 |
| Cc1coc(-c2cc(C(F)(F)F)ccc2OC2CC3CCC(C2)N3c2ccc(C(F)(F)F)cn2)n1 (stereo not drawn) [2-209] | 100 |
| FC(F)(F)c1ccc(N2CC3CCC(C2)C3Oc2ccc(C(F)(F)F)cc2OCc2ccoc2)nc1 (stereo not drawn) [5-207] | 100 |
| CC(C)(C)COc1cc(C(F)(F)F)ccc1OC1CCN(c2ccc(C(F)(F)F)cn2)CC1 [1-114] | 100 |
| COC(C)OCc1cc(C(F)(F)F)ccc1OC1CCN(c2ccc(C(F)(F)F)cn2)CC1C (stereo not drawn) [1-189] | 100 |
| CC1COC(c2cc(C(F)(F)F)ccc2OC2CC3CCC(C2)N3c2ccc(C(F)(F)F)cn2)=N1 (stereo not drawn) [2-199] | 100 |
| FC(F)(F)c1ccc(N2CCC(Oc3cc(C(F)(F)F)cc(C(F)(F)F)c3)CC2)nc1 [1-79] | 100 |
| CCC(=O)c1cc(C(F)(F)F)ccc1OC1CCN(c2ccc(C(F)(F)F)cn2)CC1 [1-179] | 100 |
| CCCOc1cc(C(F)(F)F)cc(Cl)c1OC1CCN(c2ccc(C(F)(F)F)cn2)CC1 [1-18] | 100 |
| FC(F)(F)c1ccc(N2CC3CCC(C2)C3Oc2ccc(C(F)(F)F)cc2C2OCCO2)nc1 (stereo not drawn) [5-215] | 100 |
| CC(C)(C)C(=O)Oc1cc(C(F)(F)F)ccc1OC1CC2CCC(C1)N2c1ccc(C(F)(F)F)cn1 (stereo not drawn) [2-150] | 100 |
| O=[N+]([O-])c1cc(C(F)(F)F)ccc1O[C@@H]1[C@@H]2CC[C@H]1CN(c1ccc(C(F)(F)F)cn1)C2 [5-38] | 100 |
| CCCC(=O)c1cc(C(F)(F)F)ccc1OC1C2CCC1CN(c1ccc(C(F)(F)F)cn1)C2 (stereo not drawn) [5-240] | 100 |
| O=C(OC1CCCC1)c1cc(C(F)(F)F)ccc1OC1CC2CCC(C1)N2c1ccc(C(F)(F)F)cn1 (stereo not drawn) [2-223] | 100 |
| CCCN(C)c1cc(C(F)(F)F)ccc1OC1CC2CCC(C1)N2c1ccc(C(F)(F)F)cn1 (stereo not drawn) [2-161] | 100 |
| Cc1noc(-c2cc(C(F)(F)F)ccc2O[C@@H]2[C@@H]3CC[C@H]2CN(c2ccc(C(F)(F)F)cn2)C3)n1 [5-256] | 100 |
| CCOCc1cc(C(F)(F)F)ccc1OC1C2CCC1CN(c1ccc(C(F)(F)F)cn1)C2 (stereo not drawn) [5-220] | 100 |
| FC(F)(F)c1ccc(N2CCC(Oc3ccc(C(F)(F)F)cc3I)CC2)nc1 [1-27] | 100 |
| CC=CCOc1cc(C(F)(F)F)ccc1OC1C2CCC1CN(c1ccc(C(F)(F)F)cn1)C2 (mixture of isomers) [5-175] | 100 |
| CCCCOc1cc(C(F)(F)F)ccc1OC1CC2CCC(C1)N2c1ccc(C(F)(F)F)cn1 (stereo not drawn) [2-97] | 100 |
